System: rotarod deficit in mice
Assay: Rotarod deficit in mice
Format: in vivo
Conditions: mouse, in vivo, ip
Method: Each mouse was administered with a test drug, and then placed on a 1 inch diameter knurled plastic rod rotating at 6 rpm (Ugo-Basile, Milano, Italy), and the rotarod deficit (%) was obtained by counting the number of mice fallen from the rotating rod within 1 min at 30, 60, 90, and 120 min after the administration of the drug.
READOUT_TYPE: rotarod deficit TD50 as times of ED50 for antipsychotic efficacy

The recorded rotarod deficit TD50 as times of ED50 for antipsychotic efficacy for entry CCCc1cc(CCCN2CCN(c3ccc(Cl)cc3)CC2)n(-c2ccccc2)n1 equals 2.2-5 times

The recorded rotarod deficit TD50 as times of ED50 for antipsychotic efficacy for entry CC(C)c1cc(CCCN2CCN(c3ccccc3F)CC2)n(-c2ccccc2)n1 equals 2.2-5 times

The recorded rotarod deficit TD50 as times of ED50 for antipsychotic efficacy for entry CCCc1cc(CCCN2CCN(c3ccccc3)CC2)n(-c2ccccc2)n1 equals 2.2-5 times

The recorded rotarod deficit TD50 as times of ED50 for antipsychotic efficacy for entry CCCc1cc(CCCN2CCN(c3cccc(C)c3C)CC2)n(-c2ccccc2)n1 equals 2.2-5 times

The recorded rotarod deficit TD50 as times of ED50 for antipsychotic efficacy for entry CCCc1cc(CCCN2CCN(c3ccccc3F)CC2)n(-c2ccccc2)n1 equals 2.2-5 times

The recorded rotarod deficit TD50 as times of ED50 for antipsychotic efficacy for entry CCCc1cc(CCCN2CCN(c3ccc(C)c(C)c3)CC2)n(-c2ccccc2)n1 equals 2.2-5 times

----------
target: 5-HT7 receptor (Homo sapiens); test: Serotonin receptor binding experiment, 5-HT7; parameters: species or system human or rat; conditions: [3H]LSD 3 nM, 90 min at 27° C.; read-out: Receptor affinity (IC50, nM) 5-HT7
Sequence (P34969 whole entry): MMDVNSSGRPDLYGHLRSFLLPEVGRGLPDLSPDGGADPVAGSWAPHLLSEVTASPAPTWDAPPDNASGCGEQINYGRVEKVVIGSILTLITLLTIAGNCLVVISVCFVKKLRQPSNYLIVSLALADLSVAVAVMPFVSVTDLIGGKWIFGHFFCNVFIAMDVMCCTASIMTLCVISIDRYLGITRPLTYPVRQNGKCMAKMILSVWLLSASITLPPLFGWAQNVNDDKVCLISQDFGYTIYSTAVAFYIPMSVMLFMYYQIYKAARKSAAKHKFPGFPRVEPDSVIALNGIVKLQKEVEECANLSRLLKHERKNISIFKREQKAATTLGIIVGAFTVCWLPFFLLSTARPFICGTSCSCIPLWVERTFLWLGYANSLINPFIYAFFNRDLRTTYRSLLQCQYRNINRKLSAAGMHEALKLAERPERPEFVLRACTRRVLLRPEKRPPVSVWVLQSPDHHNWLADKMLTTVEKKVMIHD
READOUT_TYPE: IC50 (nM)
Output spec: scalar in nM, unitless text.

The recorded IC50 for entry CCCc1cc(CCCN2CCN(c3cccc(C)c3C)CC2)n(-c2ccccc2)n1 [Compound 160] equals 84

The recorded IC50 for entry CC(C)c1cc(CCCN2CCN(c3ccccc3F)CC2)n(-c2ccccc2)n1 [Compound 177] equals 252

The recorded IC50 for entry CCCc1cc(CCCN2CCN(c3ccccc3)CC2)n(-c2ccccc2)n1 [Compound 155] equals 259

The recorded IC50 for entry CCCc1cc(CCCN2CCN(c3ccc(C)c(C)c3)CC2)n(-c2ccccc2)n1 [Compound 159] equals 195

The recorded IC50 for entry CCCc1cc(CCCN2CCN(c3ccc(Cl)c(Cl)c3)CC2)n(-c2ccccc2)n1 [Compound 163] equals 651

The recorded IC50 for entry CCCc1cc(CCCN2CCN(c3ccccc3F)CC2)n(-c2ccccc2)n1 [Compound 156] equals 313

----------
What IC50 was measured for each of the following?
molecular target: UniProt P28335; assay: Serotonin receptor binding experiment, 5-HT2C; parameters: species or system human or rat; conditions: [3H]Mesulergine 1 nM, 30 min at 37° C.; read-out: Receptor affinity (IC50, nM) 5-HT2C
Sequence (P28335 33-458): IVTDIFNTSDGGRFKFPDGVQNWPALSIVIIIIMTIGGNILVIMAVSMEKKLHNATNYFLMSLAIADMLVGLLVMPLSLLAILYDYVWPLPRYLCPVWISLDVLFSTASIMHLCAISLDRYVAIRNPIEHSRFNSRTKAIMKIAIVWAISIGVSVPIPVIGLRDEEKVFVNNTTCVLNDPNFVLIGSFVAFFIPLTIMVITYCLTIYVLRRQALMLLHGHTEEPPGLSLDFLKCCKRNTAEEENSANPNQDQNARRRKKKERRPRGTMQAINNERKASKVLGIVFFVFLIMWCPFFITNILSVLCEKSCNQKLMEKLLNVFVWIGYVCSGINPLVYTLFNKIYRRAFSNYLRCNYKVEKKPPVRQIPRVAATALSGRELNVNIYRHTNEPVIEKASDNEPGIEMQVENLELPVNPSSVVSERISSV
Output spec: scalar in nM, unitless text.

The recorded IC50 for entry CCCc1cc(CCCN2CCN(c3ccc(Cl)c(Cl)c3)CC2)n(-c2ccccc2)n1 equals 558

The recorded IC50 for entry CCCc1cc(CCCN2CCN(c3ccccc3F)CC2)n(-c2ccccc2)n1 equals 1400

The recorded IC50 for entry CC(C)c1cc(CCCN2CCN(c3ccccc3F)CC2)n(-c2ccccc2)n1 equals 505

The recorded IC50 for entry CCCc1cc(CCCN2CCN(c3ccccc3)CC2)n(-c2ccccc2)n1 equals 671

The recorded IC50 for entry CCCc1cc(CCCN2CCN(c3cccc(C)c3C)CC2)n(-c2ccccc2)n1 equals 141

The recorded IC50 for entry CCCc1cc(CCCN2CCN(c3ccc(C)c(C)c3)CC2)n(-c2ccccc2)n1 equals 154

Data origin, for the record: patent US8372844B2
